Target: Complex II–III
Test: Succinate-cytochrome c reductase (complexes II–III) activity, bovine mitochondria
Assay type: biochemical
Excerpt: Recombinant human DHODH was purified, crystallized, and assayed as previously described ([Inaoka et al., 2016]) without modification. […]
Quantity name: IC50 (µM)
Only the number, expressed in µM, is required.

What does the record list as IC50 for C/C(=C\Cc1c(O)c(Cl)c(C)c(C=O)c1O)CC/C=C(\C)[C@@H]1CC(=O)C(C)(C)O1 [Compound 1, ascofuranone] ? 13

Then this compound: CC(=O)OC(C)/C(C)=C/CC/C(C)=C/Cc1c(O)c(Cl)c(C)c(C=O)c1O (stereo not shown) [Compound 7] 2.3

Next: COc1[nH]c(=O)c(C(=O)[C@@H](C)C[C@H](C)[C@@H](Cl)CCl)c(O)c1OC [Atpenin A5, reference compound] 0.0063

Please give the result for CC(C)=CCC/C(C)=C/CC/C(C)=C/Cc1c(O)c(Cl)c(C)c(C=O)c1O [Compound 8] too. 0.12

// same read-out, input: COC(=O)/C(C)=C/CC/C(C)=C/Cc1c(O)c(Cl)c(C)c(C=O)c1O [Compound 9] 5.7

How about CC(/C=C/[C@@]1(C)[C@H](C)CCC(=O)[C@@H]1C)=C\Cc1c(O)c(Cl)c(C)c(C=O)c1O [Compound 10, Ascochlorin] ? 0.0069

###

Tested on: LOX-IMVI
Assay: 39-cancer cell panel assay: LOX-IMVI
Assay type: cell-based
Settings: Homo sapiens, Me
Quantity name: GI50 (µM)
Write it as a number; the unit µM goes unstated.

Field request: GI50 | item: CC(C)=CCC/C(C)=C/CC/C(C)=C/Cc1c(O)c(Cl)c(C)c(C=O)c1O [Compound 8] 0.61

For C/C(=C\COC(=O)C(C)C)CC/C(C)=C/Cc1c(O)c(Cl)c(C)c(C=O)c1O [Compound 12] then? 3.4

Same for C/C(=C\Cc1c(O)c(Cl)c(C)c(C=O)c1O)CC/C=C(\C)[C@@H]1CC(=O)C(C)(C)O1 [Compound 1, ascofuranone] 2.8

Field entry: COC(=O)/C(C)=C/CC/C(C)=C/Cc1c(O)c(Cl)c(C)c(C=O)c1O [Compound 9] 2.1

What do we get for CC(=O)OC(C)/C(C)=C/CC/C(C)=C/Cc1c(O)c(Cl)c(C)c(C=O)c1O (stereo not drawn) [Compound 7] ? 1.5

Note, next up: C/C(=C\Cc1c(O)c(Cl)c(C)c(C=O)c1O)CC/C=C(\C)C(C)O (stereo not drawn) [Compound 6] 13

###

Test: Cytotoxicity assay (Cell Counting Kit-8 / WST-8) on DLD-1 cells
Format: cell-based, human
Conditions: human, DLD-1 colorectal adenocarcinoma cells; DLD-1, original medium, normal oxygen, 100 μM, 24 h
Description: For hypoxia and nutrient-deprived culture conditions, cells were incubated under 1% oxygen in glucose and glutamine-free DMEM (Gibco) without FBS. DLD-1 or HDF cells were seeded at 2.5 × 10^4 cells/well on a 96-well plate with normal medium, and cultured overnight under normal culture condition. […] After 3 h incubation under normal culture condition, the absorbance was measured at 450 nm using SpectraMax M2e-TUY microplate reader (Molecular Devices). […]
Quantity name: viability at 24 h, 100 µM

Param item = `C/C(=C\Cc1c(O)c(Cl)c(C)c(C=O)c1O)CC/C=C(\C)[C@@H]1CC(=O)C(C)(C)O1` ; retrieve measured viability at 24 h, 100 µM. ~80%

These data points were gathered from paper PMC6131557.
